tested on: serum ALT activity induced by CCl4; test: Protective effect against acute hepatic damage induced by carbon tetrachloride (serum ALT); assay type: in vivo; conditions: Mus musculus; mice, 50 mg/kg oral, 6 h before CCl4 (50 ul/kg oral); ALT 24 h after CCl4; read-out: Inhibitory (%): protective effect against increase of serum ALT activity induced by CCl4
Reported inhibition in vivo at 50 mg/kg values for the following compounds.
Unit % implied. Number only.

[Q] Query: inhibition in vivo at 50 mg/kg; subject: `CC(C)OC(=O)C(C(=O)Nc1cccc(O)c1)=C1SC=CS1`
[A] 93

[Q] Query: inhibition in vivo at 50 mg/kg; subject: `CC(C)OC(=O)C(C(N)=O)=C1SC=CS1`
[A] 65.5

====

Reported LD50 at 336 h values for the following compounds.
test: Acute oral toxicity, median lethal dose (LD50); conditions: mouse, in vivo, male ICR mice, deaths counted for 14 days

Would you please look over these solved cases?
compound="CCOC(=O)C(C(=O)Nc1ccccc1)=C1SC=CS1 [17(c)]" readout_value="> 5000 mg/kg"
compound="Cc1cccc(NC(=O)C(C(=O)OC(C)C)=C2SC=CS2)n1 [18(f)]" readout_value="> 5000 mg/kg"

[Q] Query: LD50 at 336 h; subject: CCC(C)OC(=O)C(C(=O)Nc1ccc(OC)cc1)=C1SC=CS1 (stereo not shown) [17(n)]
[A] > 5000 mg/kg

[Q] Query: LD50 at 336 h; subject: CC(C)OC(=O)C(C(=O)Nc1ccc(C(F)(F)F)cc1)=C1SC=CS1 [17(s)]
[A] > 4000 mg/kg

[Q] Query: LD50 at 336 h; subject: CC(C)OC(=O)C(C(=O)Nc1nnn[nH]1)=C1SC=CS1 [20(b)]
[A] 5000 mg/kg

[Q] Query: LD50 at 336 h; subject: CC(C)OC(=O)C(C(=O)Nc1nc2ccccc2s1)=C1SC=CS1 [18(n)]
[A] > 5000 mg/kg

[Q] Query: LD50 at 336 h; subject: CC(C)OC(=O)C(C(=O)Nc1ccccn1)=C1SC=CS1 [18(a)]
[A] 4200 mg/kg

[Q] Query: LD50 at 336 h; subject: CC(C)OC(=O)C(C(=O)Nc1[nH]cnc1C(N)=O)=C1SC=CS1 [18(o)]
[A] > 5000 mg/kg

[Q] Query: LD50 at 336 h; subject: CC(C)OC(=O)C(C(=O)Nc1ccc(F)cc1)=C1SC=CS1 [17(i)]
[A] > 5000 mg/kg

[Q] Query: LD50 at 336 h; subject: CC(C)OC(=O)C(C(=O)Nc1nccs1)=C1SC=CS1 [19(a)]
[A] > 5000 mg/kg

====

assay: Acute oral toxicity, median lethal dose (LD50); settings: mouse, in vivo, male ICR mice, deaths counted for 14 days
Test readout: LD50 at 336 h

compound="Cc1ccnc(NC(=O)C(C(=O)OC(C)C)=C2SC=CS2)c1 [18(e)]" test_readout="LD50 at 336 h" readout_value="> 5000 mg/kg"
compound="CC(C)OC(=O)C(C(=O)Nc1cc[nH]n1)=C1SC=CS1 [20(a)]" test_readout="LD50 at 336 h" readout_value="5000 mg/kg"
compound="CC(=O)Oc1cccc(NC(=O)C(C(=O)OC(C)C)=C2SC=CS2)c1 [24(b)]" test_readout="LD50 at 336 h" readout_value="> 5000 mg/kg"

Could you now look at the following compound, please?
[Q] Query: LD50 at 336 h; subject: CCC(C)OC(=O)C(C(=O)Nc1ccccc1)=C1SC=CS1 (stereo not shown) [17(b)]
[A] > 5000 mg/kg

====

assay: Acute oral toxicity, median lethal dose (LD50); details: mouse, in vivo, male ICR mice, deaths counted for 14 days
Test readout: LD50 at 336 h

Would you please look over these solved cases?
molecule=COc1ccc(NC(=O)C(C(=O)OC(C)C)=C2SC=CS2)cc1 test_readout="LD50 at 336 h" readout_value="> 5000 mg/kg"
molecule=CC(C)OC(=O)C(C(=O)Nc1ccccc1)=C1SC=CS1 test_readout="LD50 at 336 h" readout_value="3000 mg/kg"
molecule=Cc1nc(NC(=O)C(C(=O)OC(C)C)=C2SC=CS2)sc1C test_readout="LD50 at 336 h" readout_value="> 5000 mg/kg"
molecule=CC(C)OC(=O)C(C(=O)Nc1cccc(Cl)c1)=C1SC=CS1 test_readout="LD50 at 336 h" readout_value="> 5000 mg/kg"
molecule=CC(C)OC(=O)C(C(=O)Nc1ccc(Cl)cc1)=C1SC=CS1 test_readout="LD50 at 336 h" readout_value="> 5000 mg/kg"

[Q] Query: LD50 at 336 h; subject: `CC(C)OC(=O)C(C(=O)Nc1ccc(O)cc1)=C1SC=CS1`
[A] > 5000 mg/kg

[Q] Query: LD50 at 336 h; subject: `Cc1csc(NC(=O)C(C(=O)OC(C)C)=C2SC=CS2)n1`
[A] 5000 mg/kg

[Q] Query: LD50 at 336 h; subject: CCC(C)OC(=O)C(C(=O)Nc1ccccn1)=C1SC=CS1 (stereo not shown)
[A] 5000 mg/kg

[Q] Query: LD50 at 336 h; subject: `Cc1nnc(NC(=O)C(C(=O)OC(C)C)=C2SC=CS2)s1`
[A] > 5000 mg/kg

[Q] Query: LD50 at 336 h; subject: `CC(C)OC(=O)C(C(=O)Nc1ccnc(O)n1)=C1SC=CS1`
[A] > 5000 mg/kg

====

tested on: serum ALT activity induced by CCl4; test: Protective effect against acute hepatic damage induced by carbon tetrachloride (serum ALT); type: in vivo; conditions: Mus musculus; mice, 50 mg/kg oral, 6 h before CCl4 (50 ul/kg oral); ALT 24 h after CCl4; read-out: Inhibitory (%): protective effect against increase of serum ALT activity induced by CCl4
Test readout: inhibition in vivo at 50 mg/kg (%)
Unit % implied. Number only.

molecule="CC(=O)Nc1cccc(NC(=O)C(C(=O)OC(C)C)=C2SC=CS2)c1 [17(r)]" readout_value=46.6

[Q] Query: inhibition in vivo at 50 mg/kg; subject: `COc1ccc(NC(=O)C(C(=O)OC(C)C)=C2SC=CS2)cc1`
[A] 99.6

====

system: serum ALT activity induced by CCl4; assay: Protective effect against acute hepatic damage induced by carbon tetrachloride (serum ALT); type: in vivo; details: Mus musculus; mice, 50 mg/kg oral, 6 h before CCl4 (50 ul/kg oral); ALT 24 h after CCl4; read-out: Inhibitory (%): protective effect against increase of serum ALT activity induced by CCl4
Reported inhibition in vivo at 50 mg/kg values for the following molecules.
Unit % implied. Number only.

Would you please look over these solved cases?
molecule=CC(C)OC(=O)C(C(=O)Nc1ccncc1)=C1SC=CS1 readout_value=99.7
molecule=CC(C)OC(=O)C(C(=O)Nc1ccc(O)cc1)=C1SC=CS1 readout_value=99.2
molecule=CC(C)OC(=O)C(C(=O)Nc1cccnc1)=C1SC=CS1 readout_value=100
molecule=CC(C)OC(=O)C(C(=O)Nc1cnccn1)=C1SC=CS1 readout_value=99.8
molecule=CC(C)OC(=O)C(C(=O)Nc1nc2ccccc2s1)=C1SC=CS1 readout_value=15.2
molecule=Cc1cc(NC(=O)C(C(=O)OC(C)C)=C2SC=CS2)no1 readout_value=100

[Q] Query: inhibition in vivo at 50 mg/kg; subject: Cc1ccnc(NC(=O)C(C(=O)OC(C)C)=C2SC=CS2)c1 [18(e)]
[A] 99.7

[Q] Query: inhibition in vivo at 50 mg/kg; subject: Cc1cnc(NC(=O)C(C(=O)OC(C)C)=C2SC=CS2)s1 [19(e)]
[A] 9.2

[Q] Query: inhibition in vivo at 50 mg/kg; subject: CCC(C)OC(=O)C(C(=O)Nc1ccccn1)=C1SC=CS1 (stereo not shown)
[A] 100

[Q] Query: inhibition in vivo at 50 mg/kg; subject: `CC(C)OC(=O)C(C(=O)Nc1ccccc1C(=O)O)=C1SC=CS1`
[A] 74

[Q] Query: inhibition in vivo at 50 mg/kg; subject: CCC(C)OC(=O)C(C(=O)Nc1ccccc1)=C1SC=CS1 (stereo not shown)
[A] 99.8

[Q] Query: inhibition in vivo at 50 mg/kg; subject: `CC(C)OC(=O)C(C(=O)Nc1nncs1)=C1SC=CS1`
[A] 100

====

Tested on: serum ALT activity induced by CCl4
Test: Protective effect against acute hepatic damage induced by carbon tetrachloride (serum ALT)
Assay type: in vivo
Conditions: Mus musculus; mice, 50 mg/kg oral, 6 h before CCl4 (50 ul/kg oral); ALT 24 h after CCl4; read-out: Inhibitory (%): protective effect against increase of serum ALT activity induced by CCl4
Description: Principle; Carbon tetrachloride (CCl4) is a well-known hepatotoxic agent, thus widely used to produce experimental animal models for screening the potential drugs acting upon hepatic diseases. […] 24 Hours after the CCl4 treatment, the animals were sacrificed and serum alanine aminotransferase (ALT) levels were determined. The hepatoprotective effect of a test compound was evaluated by the suppressive action against the increase of serum ALT induced by CCl4. […]
Test readout: inhibition in vivo at 50 mg/kg (%)
Unit % implied. Number only.

[Q] Form field - read-out: inhibition in vivo at 50 mg/kg; system: serum ALT activity induced by CCl4; submitted item: `CC(C)OC(=O)C(C(=O)Nc1ccccc1O)=C1SC=CS1`
[A] 16.2
